assay: Study MPKF: plasma pharmacokinetics of MDMA and MDA, single 120 mg MDMA·HCl, fasted/fed; format: in vivo, human; settings: human, plasma, po, 120 mg, Fasted (N = 15); 120 mg MDMA·HCl; geometric mean; read-out: AUC0-t
measuredParameter: AUC(0-t) (ng·h/mL)
// return numeric value only (unit: ng·h/mL, not printed)

What does the record list as AUC(0-t) for CC(N)Cc1ccc2c(c1)OCO2 (stereo not shown) ?
282

###

assay: Study MPKF: plasma pharmacokinetics of MDMA and MDA, single 120 mg MDMA·HCl, fasted/fed; format: in vivo, human; details: human, plasma, oral, 120 mg, fed treatment group; 72 h; read-out: PK plasma concentration, Geom. Mean
measuredParameter: concentration at 72 h (ng/mL)
// return numeric value only (unit: ng/mL, not printed)

What does the record list as concentration at 72 h for CNC(C)Cc1ccc2c(c1)OCO2 (stereo not shown) ?
11.3

###

assay: Study MPKF: plasma pharmacokinetics of MDMA and MDA, single 120 mg MDMA·HCl, fasted/fed; assay type: in vivo, human; conditions: human, plasma, po, 120 mg, single 120 mg dose of MDMA·HCl, fasting; read-out: t1/2 (converted)
measuredParameter: half-life (min)
// return numeric value only (unit: min, not printed)

What does the record list as half-life for CNC(C)Cc1ccc2c(c1)OCO2 (centres unmarked) [MDMA, 3,4-methylenedioxymethamphetamine] ?
546

What does the record list as half-life for CC(N)Cc1ccc2c(c1)OCO2 (centres unmarked) [MDA, 3,4-methylenedioxyamphetamine] ?
768

###

assay: Study MPKF: plasma pharmacokinetics of MDMA and MDA, single 120 mg MDMA·HCl, fasted/fed; type: in vivo, human; settings: human, plasma, oral, 120 mg, fasted treatment group; 12 h; read-out: PK plasma concentration, Mean
measuredParameter: concentration at 12 h (ng/mL)
// return numeric value only (unit: ng/mL, not printed)

What does the record list as concentration at 12 h for CNC(C)Cc1ccc2c(c1)OCO2 (stereo not shown) ?
118

###

experiment: Study MPKF: plasma pharmacokinetics of MDMA and MDA, single 120 mg MDMA·HCl, fasted/fed; type: in vivo, human; conditions: human, plasma, po, 120 mg, Fed (N = 14); 120 mg MDMA·HCl; geometric mean; read-out: AUC0-inf
measuredParameter: AUC(0-inf) (ng·h/mL)
// return numeric value only (unit: ng·h/mL, not printed)

What does the record list as AUC(0-inf) for CC(N)Cc1ccc2c(c1)OCO2 (stereo not shown) [MDA, 3,4-methylenedioxyamphetamine] ?
369

###

assay: Study MPKF: plasma pharmacokinetics of MDMA and MDA, single 120 mg MDMA·HCl, fasted/fed; assay type: in vivo, human; conditions: both sexes, human, plasma, po; single 120 mg dose of MDMA·HCl, fasting healthy males and females; read-out: Cmax
measuredParameter: Cmax (ng/mL)
// return numeric value only (unit: ng/mL, not printed)

                                   compound  measurementunit  quantitativeresult
0  CC(N)Cc1ccc2c(c1)OCO2 (centres unmarked)            ng/mL                13.3

Continue with the next compound.
What does the record list as Cmax for CNC(C)Cc1ccc2c(c1)OCO2 (centres unmarked) ?
261

###

experiment: Study MPKF: plasma pharmacokinetics of MDMA and MDA, single 120 mg MDMA·HCl, fasted/fed; type: in vivo, human; settings: human, plasma, po, 120 mg, Fasted (N = 15); 120 mg MDMA·HCl; geometric mean; read-out: AUC0-72
measuredParameter: AUC(0-t) (ng·h/mL)
// return numeric value only (unit: ng·h/mL, not printed)

What does the record list as AUC(0-t) for CC(N)Cc1ccc2c(c1)OCO2 (stereo not shown) [MDA, 3,4-methylenedioxyamphetamine] ?
313

Numbers sourced from patent US20250134855A1.
